Reference source for all entries: patent US10196363B2

biological target: human RORγ (Homo sapiens, UniProt P51449); construct: human RORγ, from Ser253 to Lys518; expressed in transfected cells; host or cells: CHO cells (Chinese hamster ovary), transient co-transfection with pG5-Luc; assay: In vitro assay of inhibitory effect against RORγ transcriptional activity (GAL4-hRORγ LBD luciferase reporter gene assay in CHO cells); format: cell-based; conditions: GAL4-hRORγ LBD / pG5-Luc in CHO cells, 2 days incubation
Sequence (P51449 253-518): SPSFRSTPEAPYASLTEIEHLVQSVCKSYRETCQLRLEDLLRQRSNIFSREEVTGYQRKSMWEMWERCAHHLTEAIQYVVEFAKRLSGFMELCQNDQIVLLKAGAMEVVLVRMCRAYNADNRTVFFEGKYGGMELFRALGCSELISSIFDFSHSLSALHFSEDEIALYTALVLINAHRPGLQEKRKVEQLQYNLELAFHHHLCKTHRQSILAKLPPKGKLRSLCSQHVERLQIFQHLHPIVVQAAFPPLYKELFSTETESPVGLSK
pEC50: −log10 of the molar value.
observed.property: pEC50

In [3]: df
Out[3]:
                                   molecule  observed_property  observed
0  CC(C)(C)CCc1ccc([C@@]2(C)NC(=O)N(CCCC(=O)O)C=C2C2CCCCC2)cc1Cl              pEC50      5.51
1  CC(C)C1=CN(CCC2(C(=O)O)CC2)C(=O)N[C@]1(C)c1ccc(CCC(C)(C)C)c(Cl)c1              pEC50      6.30
2  CC(C)C1=CN(C2CCC(C(=O)O)C2)C(=O)N[C@@]1(C)c1ccc(CCC(C)(C)C)c(Cl)c1 (single isomer, unassigned)              pEC50      7.72
3  CC(C)CCc1ccc(C2(C)NC(=O)N(CCCC(=O)O)C=C2C(C)C)cc1Cl (racemic)              pEC50      7.60

###

Recorded measurements of EC50, one per entry
target: human RORγ (Homo sapiens, UniProt P51449); construct: human RORγ, from Ser253 to Lys518; expressed in transfected cells; host or cells: CHO cells (Chinese hamster ovary), transient co-transfection with pG5-Luc; assay: In vitro assay of inhibitory effect against RORγ transcriptional activity (GAL4-hRORγ LBD luciferase reporter gene assay in CHO cells); assay type: cell-based; details: GAL4-hRORγ LBD / pG5-Luc in CHO cells, 2 days incubation
observed.property: EC50

                                   compound  observed
0  CC(C)C1=CN(CCC(=O)O)C(=O)N[C@@]1(C)c1ccc2c(c1)CC(C)(C)C2   3.03 µM
1  CC(C)C1=CN([C@H]2C[C@H](C(=O)O)C2)C(=O)N[C@]1(C)c1ccc(CCC(C)(C)C)c(Cl)c1    > 8 µM
2  CC(C)C1=CN(CCC(=O)O)C(=O)N[C@]1(C)c1ccc(C2CCCCC2)c(Cl)c1    > 8 µM
3  CC(C)C1=CN([C@H]2CC[C@@H](C(=O)O)CC2)C(=O)N[C@]1(C)c1ccc(CCC(C)(C)C)c(Cl)c1   3.61 µM
4  CC1=CN(CCCC(=O)O)C(=O)N[C@]1(C)c1ccc(CCC(C)(C)C)c(Cl)c1   15.3 µM
5  CC1=C(C(C)C)C(C)(c2ccc(CCC(C)(C)C)c(Cl)c2)NC(=O)N1CCCC(=O)O (racemic)  0.015 µM
6  CC(C)C1=CN(CCC(=O)O)C(=O)N[C@@]1(C)c1ccc(CCC(C)(C)C)c(Cl)c1  0.011 µM

###

target: human RORγ (Homo sapiens); construct: human RORγ, from Ser253 to Lys518; expressed in transfected cells; host or cells: CHO cells (Chinese hamster ovary), transient co-transfection with pG5-Luc; test: In vitro assay of inhibitory effect against RORγ transcriptional activity (GAL4-hRORγ LBD luciferase reporter gene assay in CHO cells); type: cell-based; conditions: GAL4-hRORγ LBD / pG5-Luc in CHO cells, 2 days incubation
pEC50: −log10 of the molar value.
Recorded measurements of pEC50, one per entry
observed.property: pEC50

In [3]: df
Out[3]:
                                   compound  observed
0  CC(C)C1=CN(CCC(=O)O)C(=O)N[C@@]1(C)c1cc(F)c(/C=C/C(C)(C)C)c(Cl)c1      7.52
1  CC(C)C1=CN(CCc2ccc(C(=O)O)cc2)C(=O)N[C@]1(C)c1ccc(CCC(C)(C)C)c(Cl)c1      6.01
2  CC(C)C1=CN(CCC(=O)O)C(=O)N[C@@]1(C)c1ccc(C(C)CC(C)(C)C)c(Cl)c1 (stereo partly shown)      7.19
3  CC(C)C1=CN(CCCCC(=O)O)C(=O)N[C@@]1(C)c1ccc(CCC(C)(C)C)c(Cl)c1      7.92
4  CC(C)C1=CN(CCc2ccccc2C(=O)O)C(=O)N[C@@]1(C)c1ccc(CCC(C)(C)C)c(Cl)c1      7.40
5  CC(C)C1=CN([C@H]2C[C@](C)(C(=O)O)C2)C(=O)N[C@@]1(C)c1ccc(CCC(C)(C)C)c(Cl)c1      7.68
6  CC(C)C1=CN(CCOCC(=O)O)C(=O)NC1(C)c1ccc(CCC(C)(C)C)c(Cl)c1 (single isomer, unassigned) [Example 39]      7.70

###

Recorded measurements of pEC50, one per entry
Target: mouse RORγ (Mus musculus)
Construct: mouse RORγ, from Ile251 to Lys516; expressed in transfected cells; host or cells: CHO cells (Chinese hamster ovary), transient co-transfection with pG5-Luc
Sequence (P51450 251-516): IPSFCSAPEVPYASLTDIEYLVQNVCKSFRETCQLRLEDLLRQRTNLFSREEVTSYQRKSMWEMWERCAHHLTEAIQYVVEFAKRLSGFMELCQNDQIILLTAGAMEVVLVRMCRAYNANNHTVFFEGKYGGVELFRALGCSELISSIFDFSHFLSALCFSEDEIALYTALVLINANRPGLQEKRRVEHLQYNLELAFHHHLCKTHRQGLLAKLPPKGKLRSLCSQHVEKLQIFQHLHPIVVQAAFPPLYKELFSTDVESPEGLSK
Assay: In vitro assay of inhibitory effect against RORγ transcriptional activity (GAL4-mRORγ LBD luciferase reporter gene assay in CHO cells)
Assay type: cell-based
Settings: GAL4-mRORγ LBD / pG5-Luc in CHO cells, 2 days incubation
pEC50: −log10 of the molar value.
observed.property: pEC50

                                    molecule                measured_on  observed_property  value_relation_sign  observed
 0  CC(C)C1=CN(CCC(=O)O)C(=O)N[C@@]1(C)c1ccc(C(C)CC(C)(C)C)c(Cl)c1 (stereo partly drawn) [Example 179]  mouse RORγ (Mus musculus)              pEC50                    =      7.57
 1  CC(C)C1=CN(CCC(=O)O)C(=O)N[C@@]1(C)c1ccc(CCC(C)(C)C)c(F)c1 [Example 176]  mouse RORγ (Mus musculus)              pEC50                    =      7.89
 2  CCCCc1ccc(C2(C)NC(=O)N(CCCC(=O)O)C=C2C(C)C)cc1 (racemic) [Example 84]  mouse RORγ (Mus musculus)              pEC50                    =      6.30
 3  CC(C)(C)CCc1ccc(C2NC(=O)N([C@H]3C[C@H](C(=O)O)C3)C=C2C(C)(C)C)cc1Cl (single isomer, unassigned) [Example 102]  mouse RORγ (Mus musculus)              pEC50                    <      5.10
 4  CC(C)C1=CN(CCC(C)C(=O)O)C(=O)NC1(C)c1ccc(OCC(C)(C)C)c(Cl)c1 (single isomer, unassigned) [Example 19]  mouse RORγ (Mus musculus)              pEC50                    =      5.92
 5  CC(C)C1=CN(CCC(=O)O)C(=O)N[C@]1(C)c1ccc(C2CCC2)c(Cl)c1 [Example 152]  mouse RORγ (Mus musculus)              pEC50                    <      4.70
 6  CC(C)C1=CN(CCC(=O)O)C(=O)N[C@@]1(C)c1ccc(C2=CCCCC2)c(Cl)c1 [Example 134]  mouse RORγ (Mus musculus)              pEC50                    =      7.57
 7  CC(C)C1=CN(CCC(=O)O)C(=O)N[C@@]1(C)c1ccc(C2CCC2)c(Cl)c1 [Example 153]  mouse RORγ (Mus musculus)              pEC50                    =      6.94
 8  CC(C)C1=CN(CC2(C(=O)O)CC2)C(=O)N[C@]1(C)c1ccc(CCC(C)(C)C)c(Cl)c1 [Example 97]  mouse RORγ (Mus musculus)              pEC50                    =      5.51
 9  CC(C)(C)CCc1ccc([C@]2(C)NC(=O)N(CCCC(=O)O)C=C2C2(C)CC2)cc1Cl [Example 52]  mouse RORγ (Mus musculus)              pEC50                    =      7.82
10  CC(C)(C)CCc1ccc([C@]2(C)NC(=O)N([C@H]3C[C@H](C(=O)O)C3)C=C2C2CC(F)(F)C2)cc1Cl [Example 96]  mouse RORγ (Mus musculus)              pEC50                    =      7.59
11  CC(C)C1=CN(CCC(=O)O)C(=O)N[C@@]1(C)c1ccc(C2CC2C(C)(C)C)c(Cl)c1 (single isomer, unassigned) [Example 169]  mouse RORγ (Mus musculus)              pEC50                    =      7.82
12  CC(C)(C)COc1ccc(C2NC(=O)N(CCCC(=O)O)C=C2C(C)(C)C)cc1Cl (single isomer, unassigned) [Example 5]  mouse RORγ (Mus musculus)              pEC50                    =      7.62
13  CC(C)C1=CN(CCC(=O)O)C(=O)N[C@]1(C)c1ccc(CCC(C)(C)C)c(Cl)c1 [Example 86]  mouse RORγ (Mus musculus)              pEC50                    <      5.10
14  CC(C)(C)CCc1ccc([C@@]2(C)NC(=O)N([C@H]3C[C@H](C(=O)O)C3)C=C2C2CCOCC2)cc1Cl [Example 99]  mouse RORγ (Mus musculus)              pEC50                    =      5.54
